- test.protocol: Organoleptic test of the compounds against sucrose (intrinsic sweetness)
- Assay type: in vivo
- Design: key: 3: sweeter than the control solution; 2: sweetness comparable with the control solution; 1: less sweet than the control solution but still sweet; 0: no intrinsic sweetness
- test.parameters: compound 200 ppm in mineral water vs sucrose 20 g/l; 3-4 panelists
assay.metric: Sweetness 200 ppm
Just the number, please.

Quick check: Sweetness 200 ppm of CC(=O)O[C@@H]1C[C@](C)(C(=O)O)C[C@H]2C3=CCC4[C@@]5(C)CC[C@H](O[C@@H]6O[C@H](C(=O)O)[C@@H](O)[C@H](O)[C@H]6O[C@@H]6O[C@H](CO)[C@H](O)[C@H](O)[C@H]6O[C@@H]6O[C@@H](C)[C@H](O)[C@@H](O)[C@H]6O)C(C)(C)C5CC[C@@]4(C)[C@]3(C)CC[C@@]12C (stereo partly shown) ? 3

Requested field: Sweetness 200 ppm. Item: CCCCCc1cc2cc(O)cc(Oc3c(O)cc(O)cc3CCCCC)c2c(=O)o1 0

Quick one: Sweetness 200 ppm for COc1cc([C@H]2c3cc(O)c(OC)cc3C[C@@H](CO[C@@H]3O[C@H](CO)[C@@H](O)[C@H](O)[C@H]3O)[C@@H]2CO)ccc1O [Compound 3, Isolariciresinol 9-glucoside] ? 0

Entry CC1=C(C(=O)O[C@@H]2O[C@H](CO[C@@H]3OC[C@@H](O)[C@H](O)[C@H]3O)[C@@H](O)[C@H](O)[C@H]2O)C(C)(C)CCC1 [Compound 2, Jasminoside M] : reported Sweetness 200 ppm = ? 0

The measured values listed here are drawn from patent US20260248165A1.
